# Tested on: Caenorhabditis elegans
# method: Minimum inhibitory concentration for growth inhibition of Caenorhabditis elegans (free living nematode) in a microplate assay
# Assay type: functional

{"columns": ["molecule", "unitAbbreviation", "MIC"],
 "data": [
  ["CCC(C)[C@H]1O[C@]2(C=C[C@@H]1C)C[C@@H]1C[C@@H](C/C=C(\\C)C(O[C@H]3C[C@H](OC)C(O[C@H]4C[C@H](OC)[C@@H](OCCN5CCOCC5)[C@H](C)O4)[C@H](C)O3)[C@@H](C)/C=C/C=C3\\CO[C@@H]4[C@H](O)C(C)=CC(C(=O)O1)C34O)O2 (stereo partly drawn)", "µg/mL", 0.01],
  ["CCC(C)[C@H]1O[C@]2(C=C[C@@H]1C)C[C@@H]1C[C@@H](C/C=C(\\C)[C@@H](OC3C[C@H](OC)[C@@H](OC4C[C@H](OC)C(OCC(=O)N5CCCCC5)[C@H](C)O4)[C@H](C)O3)[C@@H](C)/C=C/C=C3\\CO[C@@H]4[C@H](O)C(C)=C[C@@H](C(=O)O1)[C@]34O)O2 (stereo partly drawn)", "µg/mL", 0.01],
  ["CCC(C)[C@H]1O[C@]2(C=C[C@@H]1C)C[C@@H]1C[C@@H](C/C=C(\\C)C(O[C@H]3C[C@H](OC)C(O[C@H]4C[C@H](OC)[C@@H](OCCO)[C@H](C)O4)[C@H](C)O3)[C@@H](C)/C=C/C=C3\\CO[C@@H]4[C@H](O)C(C)=CC(C(=O)O1)C34O)O2 (stereo partly drawn)", "µg/mL", 0.01]
]}

* * *

# Tested on: Caenorhabditis elegans
# method: Minimum inhibitory concentration for growth inhibition of Caenorhabditis elegans (free living nematode) in a microplate assay
# Format: functional
Entries and their measured MIC follow.

{"columns": ["compound", "MIC / ng/mL"],
 "data": [
  ["CCC(C)[C@H]1O[C@]2(C=C[C@@H]1C)C[C@@H]1C[C@@H](C/C=C(\\C)[C@@H](O[C@H]3C[C@H](OC)[C@@H](OCC(=O)O)[C@H](C)O3)[C@@H](C)/C=C/C=C3\\CO[C@@H]4[C@H](O)C(C)=CC(C(=O)O1)C34O)O2 (some centres not stated)", 10],
  ["CCC(C)[C@H]1O[C@]2(C=C[C@@H]1C)C[C@@H]1C[C@@H](C/C=C(\\C)C(O[C@H]3C[C@H](OC)C(O[C@H]4C[C@H](OC)[C@@H](OC/C=N/OC)[C@H](C)O4)[C@H](C)O3)[C@@H](C)/C=C/C=C3\\CO[C@@H]4[C@H](O)C(C)=CC(C(=O)O1)C34O)O2 (some centres not stated)", 2],
  ["CCC(C)[C@H]1O[C@]2(C=C[C@@H]1C)C[C@@H]1C[C@@H](C/C=C(\\C)[C@@H](OC3C[C@H](OC)[C@@H](OC4C[C@H](OC)[C@@H](OCC(=O)O)[C@H](C)O4)[C@H](C)O3)[C@@H](C)/C=C/C=C3\\CO[C@@H]4[C@H](O)C(C)=C[C@@H](C(=O)O1)[C@]34O)O2 (some centres not stated)", 0.1],
  ["CCOC(=O)CO[C@H]1[C@H](C)O[C@@H](OC2[C@H](C)O[C@@H](OC3/C(C)=C/C[C@@H]4C[C@@H](C[C@]5(CC(=O)[C@H](C)[C@@H](C(C)CC)O5)O4)OC(=O)C4C=C(C)[C@@H](O)[C@H]5OC/C(=C\\C=C\\[C@@H]3C)C45O)C[C@@H]2OC)C[C@@H]1OC (some centres not stated)", 10],
  ["CCOC(=O)CO[C@H]1[C@H](C)O[C@@H](OC2[C@H](C)O[C@@H](OC3/C(C)=C/C[C@@H]4C[C@@H](C[C@]5(CC(O)[C@H](C)[C@@H](C(C)CC)O5)O4)OC(=O)C4C=C(C)[C@@H](O)[C@H]5OC/C(=C\\C=C\\[C@@H]3C)C45O)C[C@@H]2OC)C[C@@H]1OC (some centres not stated)", 2],
  ["CC[C@H](C)[C@H]1O[C@]2(C=C[C@@H]1C)C[C@@H]1C[C@@H](C/C=C(\\C)[C@@H](O[C@H]3C[C@H](OC)[C@@H](O[C@H]4C[C@H](OC)[C@@H](O)[C@H](C)O4)[C@H](C)O3)[C@@H](C)/C=C/C=C3\\CO[C@@H]4[C@H](O)C(C)=C[C@@H](C(=O)O1)[C@]34O)O2", 2],
  ["CCC(C)[C@H]1O[C@]2(C=C[C@@H]1C)C[C@@H]1C[C@@H](C/C=C(\\C)C(O[C@H]3C[C@H](OC)C(O[C@H]4C[C@H](OC)[C@@H](OCCNC(C)=O)[C@H](C)O4)[C@H](C)O3)[C@@H](C)/C=C/C=C3\\CO[C@@H]4[C@H](O)C(C)=CC(C(=O)O1)C34O)O2 (some centres not stated)", 10]
]}

* * *

Entries and their measured MIC follow.
# System: Caenorhabditis elegans
# method: Minimum inhibitory concentration for growth inhibition of Caenorhabditis elegans (free living nematode) in a microplate assay
# Assay type: functional
observationType: MIC (ng/mL)

{"columns": ["molecule", "numericResult"],
 "data": [
  ["CCC(C)[C@H]1O[C@]2(C=C[C@@H]1C)C[C@@H]1C[C@@H](C/C=C(\\C)C(O[C@H]3C[C@H](OC)C(O[C@H]4C[C@H](OC)[C@@H](OCCBr)[C@H](C)O4)[C@H](C)O3)[C@@H](C)/C=C/C=C3\\CO[C@@H]4[C@H](O)C(C)=CC(C(=O)O1)C34O)O2 (stereo not given in full)", 10],
  ["CCC(C)[C@H]1O[C@]2(C=C[C@@H]1C)C[C@@H]1C[C@@H](C/C=C(\\C)C(O[C@H]3C[C@H](OC)C(O[C@H]4C[C@H](OC)[C@@H](OCCN5CCNCC5)[C@H](C)O4)[C@H](C)O3)[C@@H](C)/C=C/C=C3\\CO[C@@H]4[C@H](O)C(C)=CC(C(=O)O1)C34O)O2 (stereo not given in full)", 50],
  ["CCC(C)[C@H]1O[C@]2(CC[C@@H]1C)C[C@@H]1C[C@@H](C/C=C(\\C)[C@@H](O[C@H]3C[C@H](OC)[C@@H](OCC(=O)O)[C@H](C)O3)[C@@H](C)/C=C/C=C3\\CO[C@@H]4[C@H](O)C(C)=CC(C(=O)O1)C34O)O2 (stereo not given in full)", 10],
  ["CCOC(=O)CO[C@H]1[C@H](C)O[C@@H](OC2[C@H](C)O[C@@H](OC3/C(C)=C/C[C@@H]4C[C@@H](C[C@]5(CC[C@H](C)[C@@H](C(C)CC)O5)O4)OC(=O)C4C=C(C)[C@@H](O)[C@H]5OC/C(=C\\C=C\\[C@@H]3C)C45O)C[C@@H]2OC)C[C@@H]1OC (stereo not given in full)", 2],
  ["CCC(C)[C@H]1O[C@]2(C=C[C@@H]1C)C[C@@H]1C[C@@H](C/C=C(\\C)C(O[C@H]3C[C@H](OC)C(O[C@H]4C[C@H](OC)[C@@H](OCCN5CCCCC5)[C@H](C)O4)[C@H](C)O3)[C@@H](C)/C=C/C=C3\\CO[C@@H]4[C@H](O)C(C)=CC(C(=O)O1)C34O)O2 (stereo not given in full)", 50],
  ["CCOC(=O)CO[C@H]1[C@H](C)O[C@@H](O[C@@H]2/C(C)=C/C[C@@H]3C[C@@H](C[C@]4(C=C[C@H](C)[C@@H](C(C)CC)O4)O3)OC(=O)C3C=C(C)[C@@H](O)[C@H]4OC/C(=C\\C=C\\[C@@H]2C)C34O)C[C@@H]1OC (stereo not given in full)", 2],
  ["CCC(C)[C@H]1O[C@]2(C=C[C@@H]1C)C[C@@H]1C[C@@H](C/C=C(\\C)C(O[C@H]3C[C@H](OC)C(O[C@H]4C[C@H](OC)[C@@H](OCCN)[C@H](C)O4)[C@H](C)O3)[C@@H](C)/C=C/C=C3\\CO[C@@H]4[C@H](O)C(C)=CC(C(=O)O1)C34O)O2 (stereo not given in full)", 50],
  ["CCOC(=O)CO[C@H]1[C@H](C)O[C@@H](O[C@@H]2/C(C)=C/C[C@@H]3C[C@@H](C[C@]4(CC[C@H](C)[C@@H](C(C)CC)O4)O3)OC(=O)C3C=C(C)[C@@H](O)[C@H]4OC/C(=C\\C=C\\[C@@H]2C)C34O)C[C@@H]1OC (stereo not given in full)", 2],
  ["CCC(C)[C@H]1O[C@]2(C=C[C@@H]1C)C[C@@H]1C[C@@H](C/C=C(\\C)[C@@H](OC3C[C@H](OC)[C@@H](OC4C[C@H](OC)[C@@H](OCC(=O)N5CCOCC5)[C@H](C)O4)[C@H](C)O3)[C@@H](C)/C=C/C=C3\\CO[C@@H]4[C@H](O)C(C)=C[C@@H](C(=O)O1)[C@]34O)O2 (stereo not given in full)", 0.5],
  ["CCOC(=O)CO[C@H]1[C@H](C)OC(O[C@H]2[C@H](C)O[C@@H](OC3/C(C)=C/C[C@@H]4C[C@@H](C[C@]5(C=C[C@H](C)[C@@H](C(C)CC)O5)O4)OC(=O)[C@@H]4C=C(C)[C@@H](O)[C@H]5OC/C(=C\\C=C\\[C@@H]3C)[C@]54O)C[C@@H]2OC)C[C@@H]1OC (stereo not given in full)", 2],
  ["CCC(C)[C@H]1O[C@]2(C=C[C@@H]1C)C[C@@H]1C[C@@H](C/C=C(\\C)C(O[C@H]3C[C@H](OC)C(O[C@H]4C[C@H](OC)[C@@H](OCCN=[N+]=[N-])[C@H](C)O4)[C@H](C)O3)[C@@H](C)/C=C/C=C3\\CO[C@@H]4[C@H](O)C(C)=CC(C(=O)O1)C34O)O2 (stereo not given in full)", 10],
  ["CCC(C)[C@H]1O[C@]2(C=C[C@@H]1C)C[C@@H]1C[C@@H](C/C=C(\\C)C(O[C@H]3C[C@H](OC)C(O[C@H]4C[C@H](OC)[C@@H](OC/C=N/O)[C@H](C)O4)[C@H](C)O3)[C@@H](C)/C=C/C=C3\\CO[C@@H]4[C@H](O)C(C)=CC(C(=O)O1)C34O)O2 (stereo not given in full)", 2],
  ["CCOC(=O)CO[C@H]1[C@H](C)O[C@@H](OC2[C@H](C)O[C@@H](OC3/C(C)=C/C[C@@H]4C[C@@H](C[C@]5(C/C(=N\\OC)[C@H](C)[C@@H](C(C)CC)O5)O4)OC(=O)C4C=C(C)[C@@H](O)[C@H]5OC/C(=C\\C=C\\[C@@H]3C)C45O)C[C@@H]2OC)C[C@@H]1OC (stereo not given in full)", 2],
  ["CCC(C)[C@H]1O[C@]2(CC[C@@H]1C)C[C@@H]1C[C@@H](C/C=C(\\C)[C@@H](OC3C[C@H](OC)[C@@H](OC4C[C@H](OC)[C@@H](O)[C@H](C)O4)[C@H](C)O3)[C@@H](C)/C=C/C=C3\\CO[C@@H]4[C@H](O)C(C)=C[C@@H](C(=O)O1)[C@]34O)O2 (stereo not given in full)", 2],
  ["CCC(C)[C@H]1O[C@]2(CC[C@@H]1C)C[C@@H]1C[C@@H](C/C=C(\\C)C(O[C@H]3C[C@H](OC)C(O[C@H]4C[C@H](OC)[C@@H](OCC(=O)O)[C@H](C)O4)[C@H](C)O3)[C@@H](C)/C=C/C=C3\\CO[C@@H]4[C@H](O)C(C)=CC(C(=O)O1)C34O)O2 (stereo not given in full)", 0.5]
]}
